# Tested on: NCI-H292
# test details: Cytotoxicity against human NCI-H292 cells after 24 hrs by MTT assay
# Type: functional, cell-based
# particulars: NCI-H292, 24 h
pIC50: −log10 of the molar value.
Reported pIC50 values are given for each entry in this list.

These recorded examples may help you get a feel for the data.
structure as smiles	pIC50
CC(=O)O[C@@]1(C)CCC(=O)[C@H](C)CCC[C@]2(C)O[C@H]2C(=O)C(=C(C)C)CC1	4.41
CC(=O)O[C@@]1(C)C/C=C2\O[C@H](C[C@@H]2C)C[C@]2(C)O[C@H]2C(=O)C(=C(C)C)CC1	< 4.30
CC(=O)O[C@@]1(C)CCC(=O)/C(C)=C/CC[C@]2(C)O[C@H]2C(=O)C(=C(C)C)CC1	4.31
CC(=O)O[C@@]1(C)CCC(=O)[C@@H](C)CCC[C@]2(C)O[C@H]2C(=O)C(=C(C)C)CC1	4.67
CC(C)=C1CC[C@]2(C)CC[C@]3(O[C@H](C[C@@H]3C)C[C@]3(C)O[C@H]3C1=O)O2	< 4.30
CC(C)=C1CC[C@]2(C)CC[C@]3(O[C@H](C[C@H]3C)C[C@]3(C)O[C@H]3C1=O)O2	4.32
CC(=O)O[C@]1(C)CCC(=C(C)C)C(=O)[C@@H]2O[C@@]2(C)C[C@H]2C[C@H](C)[C@@](O)(CC1)O2	< 4.30
CC(=O)O[C@@]1(C)CCC/C(C)=C/CC[C@@]2(C)O[C@@H]2C(=O)C(=C(C)C)CC1	< 4.30

Short answer please: pIC50, NCI-H292, entry CC(=O)O[C@H]1C[C@]2(C)O[C@H]2CC/C(C)=C/[C@@H](OC(C)=O)[C@]2(C)[C@@H]1[C@H]([C@]1(C)CO1)C[C@@H]2OC(C)=O < 4.30

Short answer please: pIC50, NCI-H292, entry CC(=O)O[C@]1(C)CCC(=C(C)C)C(=O)[C@@H]2O[C@@]2(C)CC/C=C(\C)[C@H](O)CC1 < 4.30

Short answer please: pIC50, NCI-H292, entry CC(C)[C@H]1CC[C@]2(C)C[C@]3(O)C(=CC(=O)[C@H]3C)[C@@H](C)CC[C@@H]12 < 4.30

###

# Test system: A549
# test details: Cytotoxicity against human A549 cells after 24 hrs by MTT assay
# Format: functional, cell-based
# particulars: A549, 24 h
quantity name: IC50

molecule	IC50
CC(=O)O[C@]1(C)CCC(=C(C)C)C(=O)[C@@H]2O[C@@]2(C)CC/C=C(\C)[C@H](O)CC1	21.5 µM
CC(=O)O[C@@]1(C)CCC(=O)[C@H](C)CCC[C@]2(C)O[C@H]2C(=O)C(=C(C)C)CC1	> 50 µM
CC(=O)O[C@]1(C)CCC(=C(C)C)C(=O)[C@@H]2O[C@@]2(C)C[C@H]2C[C@H](C)[C@@](O)(CC1)O2	> 50 µM

Next item in the queue.
Suppose we examine the molecule CC(C)[C@H]1CC[C@]2(C)C[C@]3(O)C(=CC(=O)[C@H]3C)[C@@H](C)CC[C@@H]12 [ANADENSIN] ; what IC50 value has been reported? > 50 µM
